Target: T1, Bcl-w, Q92843
T1 chain: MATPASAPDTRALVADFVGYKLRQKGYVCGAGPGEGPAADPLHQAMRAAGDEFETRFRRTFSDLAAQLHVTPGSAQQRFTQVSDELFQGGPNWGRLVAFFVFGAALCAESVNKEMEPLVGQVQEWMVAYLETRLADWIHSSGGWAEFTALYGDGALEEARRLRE
Assay: fluorescence polarisation, direct titration of receptor into 10 nM labelled peptide
metric: pKd
pKd is a log-scale quantity: -log10 of the concentration expressed in molar.

Solved entries:
> print(dat)
                                binder  assay.value
1  TRRSMVFARHLREVGDEFRSRHLNST [POFUT2]         7.01
2    RYPILENPEILRKTADDFLNRIALTD [CCNH]         5.72

Input line: Which pKd is reported for this binder? DAIIQMIVELLKRVGDQWEEEQSLAS [c6orf222]
Output line: 7.89

Input line: Which pKd is reported for this binder? EEIIHKLAMQLRHIGDNIDHRMVRED [PXT1]
Output line: 8.30

Input line: Which pKd is reported for this binder? TRELQELARKLQELADASENLLTENT [TXNDC11]
Output line: 6.60

Input line: Which pKd is reported for this binder? LMARPAVALHFQSIADGFKEAVRYVL [SOS2]
Output line: 5.27

Input line: Which pKd is reported for this binder? TVATRRLSGFLRTLADRLEGTKELLS [MINA]
Output line: 5.91

Input line: Which pKd is reported for this binder? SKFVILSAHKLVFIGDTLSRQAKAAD [BCAR1]
Output line: 5.44

Input line: Which pKd is reported for this binder? ADAIRPRCVELRHLCDDFINGNKKKW [MCF2L2]
Output line: 5.95

Input line: Which pKd is reported for this binder? AIILCNVCGNLCTDCDRFLHLHRRTK [MYCBP2]
Output line: 5.39
